Target: KLK1 (Homo sapiens, UniProt P06870)
Sequence (P06870 25-262): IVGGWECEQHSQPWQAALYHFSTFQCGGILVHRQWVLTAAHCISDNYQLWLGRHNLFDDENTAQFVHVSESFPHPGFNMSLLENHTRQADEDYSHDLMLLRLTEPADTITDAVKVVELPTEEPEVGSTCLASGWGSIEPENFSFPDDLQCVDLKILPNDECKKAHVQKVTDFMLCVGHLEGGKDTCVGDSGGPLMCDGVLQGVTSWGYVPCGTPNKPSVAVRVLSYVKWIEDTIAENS
Experiment: KLK1 fluorogenic enzyme inhibition assay (H-PFR-AMC)
Conditions: IC50 KLK1, 15 min preincubation at 37 °C; NI = not a hit (not above 50% inhibition at 50 μM)
pIC50: −log10 of the molar value.
recorded.metric: pIC50

In [3]: df
Out[3]:
                                   compound  recorded_metric  observed_result
0  CC(=O)Oc1ccccc1-c1nc(-c2ccccc2OC(C)=O)n(-c2ccc(C(=O)O)cc2)n1            pIC50           < 4.30
1  O=C(O)c1ccc(-n2nc(-c3ccccc3O)nc2-c2ccc(O)cc2O)cc1            pIC50           < 4.30
2  Oc1ccc(-n2nc(-c3ccccc3O)nc2-c2ccccc2O)cc1            pIC50             4.79

Answer with the recorded pIC50 for the compound listed here: "COc1ccc(-c2nc(-c3ccccc3O)nn2-c2ccc(C(=O)O)cc2)c(O)c1"
< 4.30

Answer with the recorded pIC50 for the compound listed here: "COc1ccc(-c2nc(-c3ccccc3O)n(-c3ccc(C(=O)O)cc3)n2)cc1"
< 4.30

Answer with the recorded pIC50 for the compound listed here: "O=C(c1ccccc1)n1nc(-c2ccccc2O)nc1-c1ccccc1O"
4.63

Answer with the recorded pIC50 for the compound listed here: "O=C(O)c1ccc(-n2nc(-c3ccccc3)nc2-c2ccccc2O)cc1"
< 4.30

Answer with the recorded pIC50 for the compound listed here: O=C(NC(Cc1ccccc1)C(=O)O)c1ccc(-n2nc(-c3ccccc3O)nc2-c2ccccc2O)cc1 (stereo not drawn)
4.79

Answer with the recorded pIC50 for the compound listed here: "COc1ccccc1-c1nc(-c2ccccc2OC)n(-c2ccc(C(=O)O)cc2)n1"
< 4.30
